# measurementDescription: chemical genetic growth profiling, strain panel (AID 1159580);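 also: tested at 20 µM; growth read once vehicle control cultures reached saturation at 30 °C; 1 = growth at the plate median or of vehicle wells; lower values mean less growth of the strain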
# assayConditions: S. cerevisiae deletion strains, growth OD, locus YGL078C, strain dbp3, active compounds read low
The whole screen tested about 5,500 compounds, of which about 2,000 (36%) were called active. Not shown: some 18% with an inconclusive outcome. Some of the results follow.
Consider the following molecules and their measured normalized growth readings.
Note: the reply should be a number with no unit written.

Prompt: For the molecule NC(=O)NCC(N)C(=O)O (stereo unspecified) , give its reported normalized growth.
Completion: 0.995

Prompt: Dear colleague, please send me the reported normalized growth for CC(=O)Oc1ccc2c(c1C(C)C)CCC1C(C)(C)CCC[C@]21C (stereo partly specified) when you can.
Completion: 1.01

Prompt: Hello, please tell me recorded normalized growth for this one: O=C(Cc1cccs1)NC1C(=O)N2C(C(=O)[O-])=C(C[n+]3ccccc3)CSC12 (stereo unspecified)
Completion: 0.99

Prompt: Assign normalized growth to the following record: "CNC(=O)Oc1cccc2c1OC(C)(C)O2"
Completion: 0.99

Prompt: Identify normalized growth associated with the molecule "CCOC(=O)NC1=C(C2CC2)C(=O)C(NC(=O)OCC)=C(C2CC2)C1=O"
Completion: 0.983

Prompt: In one line, give reported normalized growth of the entry COC(=O)[C@]1(C)CCC[C@]2(C)c3ccc(C(C)C)cc3C(=O)CC12 (stereo partly specified) .
Completion: 0.988

* * *

# measurementDescription: chemical genetic growth profiling, strain panel (AID 1159580)
# assayConditions: S. cerevisiae deletion strains, growth OD, locus YLR418C, strain cdc73, active compounds read low
About 2,000 (36%) of roughly 5,500 compounds were called active. Another 18% or so got no clear call; they are omitted. Some of the results follow.
Quick list: normalized growth per entry.
Give a plain numeric answer without units written out.

Prompt: # return recorded normalized growth for input CC(=O)OC1CN2CCC1CC2 (stereo not given)
Completion: 1.05

Prompt: Specify measured normalized growth for "COc1ccc(-c2oc3c(CC=C(C)C)c(O[C@@H]4O[C@H](CO)[C@@H](O)[C@H](O)[C@H]4O)cc(O)c3c(=O)c2O[C@@H]2O[C@@H](C)[C@H](O)[C@@H](O)[C@H]2O)cc1" .
Completion: 0.998

Prompt: Tell us which normalized growth value is on record for O=C1C=C2C(=CCOC2O)O1 (stereo not given)
Completion: 0.62

Prompt: Read the entry O=C(OC1Cc2c(O)cc(O)cc2OC1c1cc(=O)c(O)c2c(O)c(O)cc(C3Oc4cc(O)cc(O)c4CC3O)c2c1)c1cc(O)c(O)c(O)c1 (stereo not given) and write its reported normalized growth.
Completion: 0.356

Prompt: For the compound "COc1cc(O)c2c(=O)c(O)c(-c3ccc(O)c(O)c3)oc2c1" , report normalized growth.
Completion: 0.957

Next:
Prompt: Consider the compound NC(=O)NCC(N)C(=O)O (stereo not given) and give its recorded normalized growth.
Completion: 0.982

Prompt: Read off the recorded normalized growth for "CCOCN(C(=O)CCl)c1c(C)cccc1CC"
Completion: 1.03

Prompt: Identify normalized growth associated with the compound "COc1cc(OC)c2c(=O)c(O)c(-c3ccc(OC)c(OC)c3)oc2c1"
Completion: 0.559

Prompt: Answer with the recorded normalized growth for the compound listed here: "O=C(O[C@@H]1Cc2c(O)cc(O)cc2O[C@@H]1c1cc(O)c(=O)c2c(O)c(O)cc([C@H]3Oc4cc(O)cc(O)c4C[C@H]3OC(=O)c3cc(O)c(O)c(O)c3)c2c1)c1cc(O)c(O)c(O)c1"
Completion: 0.583

Prompt: Please list normalized growth recorded for the compound "CNC(=O)Oc1cccc2c1OC(C)(C)O2"
Completion: 0.9

* * *

# measurementDescription: chemical genetic growth profiling, strain panel (AID 1159580);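 also: tested at 20 µM; growth read once vehicle control cultures reached saturation at 30 °C; 1 = growth at the plate median or of vehicle wells; lower values mean less growth of the strain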
# assayConditions: S. cerevisiae deletion strains, growth OD, locus YDR150W, strain NUM1, active compounds read low
In all, about 5,500 compounds went through this assay and about 2,000 (36%) were called active. Another 18% or so got no clear call; they are omitted. This is one part of the list.
experimentalEndpoint: normalized growth

Prompt: Please look at this molecule and report its normalized growth: COC(=O)[C@]1(C)CCC[C@]2(C)c3ccc(C(C)C)cc3C(=O)CC12 (some centres not stated)
Completion: 0.975 (inactive)

Prompt: Quickly give me recorded normalized growth for "Cc1cc(C)c(/C=C2\C(=O)Nc3ccccc32)[nH]1"
Completion: 0.939 (inactive)

Prompt: Look up normalized growth of CCN(Cc1ccncc1)C(=O)C(CO)c1ccccc1 (configuration not stated) and report it.
Completion: 0.994 (inactive)

Prompt: Determine its reported normalized growth: CC(=O)Oc1ccc2c(c1C(C)C)CCC1C(C)(C)CCC[C@]21C (some centres not stated)
Completion: 0.995 (inactive)

Prompt: Write down normalized growth measured for item "COc1cc(OC)c2ccc(=O)oc2c1"
Completion: 1 (inactive)

Prompt: Report measured normalized growth; entry is "Clc1ccc(C=C2c3ccccc3-c3ccccc32)cc1"
Completion: 0.95 (inactive)

New cases:
Prompt: Determine its reported normalized growth: CCOC(=O)c1sc(S(C)(=O)=O)c2c1CCCC2O (configuration not stated)
Completion: 0.95 (inactive)

Prompt: Please report normalized growth for the following molecule: O=C1CC(Nc2ccccc2)C=C1Nc1ccccc1 (configuration not stated)
Completion: 1.02 (inactive)

Prompt: Supply reported normalized growth belonging to this molecule: "NC(=Nc1ccccc1)NC(=O)c1nc(Cl)c(N)nc1N"
Completion: 0.999 (inactive)

* * *

The molecules listed here are annotated with their normalized growth.
# measurementDescription: chemical genetic growth profiling, strain panel (AID 1159580);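 also: tested at 20 µM; growth read once vehicle control cultures reached saturation at 30 °C; 1 = growth at the plate median or of vehicle wells; lower values mean less growth of the strain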
# assayConditions: S. cerevisiae deletion strains, growth OD, locus YPL106C, strain sse1, active compounds read low
Out of some 5,500 compounds screened, about 2,000 (36%) were called active. About 18% were inconclusive and are not listed. The list shows a part of the results.

Field: example entries. Status: answers known.
Prompt: Indicate its recorded normalized growth; the molecule in question is CCC1OC(=O)[C@H](C)C(=O)[C@H](C)[C@@H](OC2O[C@H](C)C[C@H](N(C)C)[C@H]2O)[C@](C)(OC)C2(CCCn3cnc(-c4cccnc4)c3)C[C@@H](C)C(=O)[C@H](C)[C@H]3N(C2)C(=O)O[C@]13C (some centres undefined)
Completion: 0.943 (inactive)

Prompt: Tell me its normalized growth given NC(=O)NCCCC(N)C(=O)O (centres undefined) as the entry.
Completion: 1.03 (inactive)

Prompt: Answer with the recorded normalized growth for the molecule listed here: CC(=O)[C@@]1(O)CCC2C3C[C@H](C)C4=CC(=O)C=CC4(C)[C@@]3(F)[C@@H](O)C[C@@]21C (some centres undefined)
Completion: 0.922 (inactive)

More entries:
Prompt: In one line, give reported normalized growth of the entry "O=C1[O][Bi][O]c2ccccc21" .
Completion: 1 (inactive)

* * *

# measurementDescription: chemical genetic growth profiling, strain panel (AID 1159580);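 also: tested at 20 µM; growth read once vehicle control cultures reached saturation at 30 °C; 1 = growth at the plate median or of vehicle wells; lower values mean less growth of the strain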
# assayConditions: S. cerevisiae deletion strains, growth OD, locus YNL067W, strain RPL9B, active compounds read low
The campaign covered roughly 5,500 compounds. About 2,000 (36%) were called active. Roughly 18% stayed inconclusive and do not appear here. The list shows a part of the results.
Threshold 1: normalized growth strictly smaller gives 1 (yes), otherwise 0 (no).

Solved entries (count: 5):
Prompt: Confirm or reject: normalized growth of C[C@@H]1CC[C@@]2(NC1)O[C@H]1C[C@H]3C4CC=C5C[C@@H](O)CC[C@]5(C)C4CC[C@]3(C)C1[C@@H]2C (stereo partly specified) lies strictly below 1
Completion: 1 (yes)

Prompt: Problem: For the compound "O=c1c(O)c(-c2ccc(O)c(O)c2)oc2cc(O)cc(O)c12" , is normalized growth under 1?
Completion: 1 (yes)

Prompt: Lab log: compare recorded normalized growth with 1; is it strictly lower for "O=c1c(O)c(-c2cc(O)c(O)c(O)c2)oc2cc(O)cc(O)c12" ?
Completion: 0 (no)

Prompt: Please determine if "COc1cc(OC)c2c(=O)c(O)c(-c3ccc(OC)c(OC)c3)oc2c1" is below 1 in terms of normalized growth.
Completion: 1 (yes)

Prompt: Here's an entry: "COc1c(C(C)C)oc2cc3oc(=O)ccc3cc12" . Is its normalized growth below 1?
Completion: 1 (yes)

More entries:
Prompt: Item CC1CC[C@@]2(OC1)O[C@H]1CC3C4CC[C@@H]5CC(=O)CC[C@]5(C)C4CC[C@]3(C)[C@H]1[C@@H]2C (stereo partly specified) : normalized growth beneath 1, strictly?
Completion: 1 (yes)

Prompt: Determine if "COc1ccc(-c2oc3c(CC=C(C)C)c(O[C@@H]4O[C@H](CO)[C@@H](O)[C@H](O)[C@H]4O)cc(O)c3c(=O)c2O[C@@H]2O[C@@H](C)[C@H](O)[C@@H](O)[C@H]2O)cc1" shows normalized growth strictly lower than 1.
Completion: 1 (yes)

Prompt: # TODO verify normalized growth < 1 strictly for this compound: "COc1ccc(-c2cc(=O)c3c(O)cc(O[C@H]4O[C@H](CO[C@@H]5O[C@@H](C)[C@H](O)[C@@H](O)[C@H]5O)[C@@H](O)[C@H](O)[C@H]4O)cc3o2)cc1"
Completion: 0 (no)

Numbers sourced from PubChem BioAssay AID1159580.
